# TARGET ENTITY: K-Ras G12D (Homo sapiens, UniProt P01116, G12D)
# Construct: made in house; host or cells: E. coli, e.g. BL21 (DE3)
# Sequence (P01116 1-188 isoform P01116-2 G12D): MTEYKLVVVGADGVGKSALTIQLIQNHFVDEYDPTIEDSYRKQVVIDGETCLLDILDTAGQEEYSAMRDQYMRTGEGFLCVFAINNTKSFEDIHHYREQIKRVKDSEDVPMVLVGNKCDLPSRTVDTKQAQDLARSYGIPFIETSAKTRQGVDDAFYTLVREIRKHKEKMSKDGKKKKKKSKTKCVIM
# MEASUREMENT NOTES: PPI-HTRF assay, K-Ras G12D / SOS1 interaction
# Format: biochemical
# APPLIED CONDITIONS: HTRF, K-Ras G12D; read-out: PPI-HTRF-5 nM (K-Ras G12D IC50)
pIC50: −log10 of the molar value.
MEASURED PARAMETER: pIC50

MOLECULE	TARGET ENTITY	REPORTED MEASUREMENT
N#Cc1c(N)sc2c(F)ccc(-c3c(Cl)c4c5c(nc(OC[C@@]67CCCN6C[C@H](F)C7)nc5c3F)N3CC(F)(F)C[C@@H]3CO4)c12	K-Ras G12D (Homo sapiens, UniProt P01116, G12D)	> 5.30
N#Cc1c(N)sc2c(F)ccc(-c3c(Cl)c4c5c(nc(OC[C@@]67CCCN6C[C@H](F)C7)nc5c3F)N3CCOCC3CO4)c12 (some centres unmarked)	K-Ras G12D (Homo sapiens, UniProt P01116, G12D)	> 5.30
COCCN1c2nc(OC[C@@]34CCCN3C[C@H](F)C4)nc3c(F)c(-c4ccc(F)c5sc(N)c(C#N)c45)c(Cl)c(c23)OCC2COCC21 (some centres unmarked)	K-Ras G12D (Homo sapiens, UniProt P01116, G12D)	> 5.30

Lab book: pIC50 of N#Cc1c(N)sc2c(F)ccc(-c3c(Cl)c4c5c(nc(OC[C@@]67CCCN6C[C@H](F)C7)nc5c3F)N3CC[C@@H]3CO4)c12 noted as > 5.30

Lab book: pIC50 of N#Cc1c(N)sc2c(F)ccc(-c3c(Cl)c4c5c(nc(OC[C@@]67CCCN6C[C@H](F)C7)nc5c3F)N3CC(OC(F)F)CCC3CO4)c12 (single isomer, unassigned) noted as > 5.30

Lab book: pIC50 of COC1CCC2COc3c(Cl)c(-c4ccc(F)c5sc(N)c(C#N)c45)c(F)c4nc(OC[C@@]56CCCN5C[C@H](F)C6)nc(c34)N2C1 (some centres unmarked) noted as > 5.30

Lab book: pIC50 of CNC1CCN2c3nc(OC[C@@]45CCCN4C[C@H](F)C5)nc4c(F)c(-c5ccc(F)c6sc(N)c(C#N)c56)c(Cl)c(c34)OCCC2C1 (some centres unmarked) noted as > 5.30

Lab book: pIC50 of CN(C)CCN1c2nc(OC[C@@]34CCCN3C[C@H](F)C4)nc3c(F)c(-c4ccc(F)c5sc(N)c(C#N)c45)c(Cl)c(c23)OCC2COCC21 (some centres unmarked) noted as > 5.30
